# test: Biodistribution of ^111In-labeled peptides in B16-F1 melanoma-bearing mice
# Format: in vivo, mouse (B6D2F1)
# test_conditions: female, B6D2F1, mouse, stomach, iv, total radioactivity; ^111In-labeled peptide, 185 kBq i.v., 4 h; mean ± SEM of three experiments, n = 5 animals each; read-out: Stomach uptake
Non-standard residues stand in square brackets, D forms with d. Residues, ends and D or L forms follow the SMILES beside them. *: point of attachment. DOTA = O=C(O)CN1CCN(CC(=O)O)CCN(CC(=O)*)CCN(CC(=O)O)CC1; pY = N[C@@H](Cc1ccc(OP(=O)(O)O)cc1)C(=O)O; Nle = CCCC[C@H](N)C(=O)O
# tissue uptake at 4 h listing for each entry below
Note: state the figure and append the unit.

Could you tell me which tissue uptake at 4 h is on file for CCCC[C@H](NC(C)=O)C(=O)N[C@@H](CC(=O)O)C(=O)N[C@@H](Cc1c[nH]cn1)C(=O)N[C@H](Cc1ccccc1)C(=O)N[C@@H](CCCNC(=N)N)C(=O)N[C@@H](Cc1c[nH]c2ccccc12)C(=O)NCC(=O)N[C@@H](CCCCNC(=O)CN1CCN(CC(=O)O)CCN(CC(=O)O)CCN(CC(=O)O)CC1)C(=O)N[C@H](CC(=O)O)C(=O)N[C@H](CC(=O)O)C(=O)O [DOTA-NAP-D-Asp-D-Asp] (Ac-[Nle]DH[dF]RWGK(DOTA)[dD][dD]-OH) ?
0.11 %ID/g

Could you tell me which tissue uptake at 4 h is on file for CCCC[C@H](NC(C)=O)C(=O)N[C@@H](CC(=O)O)C(=O)N[C@@H](Cc1c[nH]cn1)C(=O)N[C@H](Cc1ccccc1)C(=O)N[C@@H](CCCNC(=N)N)C(=O)N[C@@H](Cc1c[nH]c2ccccc12)C(=O)NCC(=O)N[C@@H](CCCCNC(=O)CN1CCN(CC(=O)O)CCN(CC(=O)O)CCN(CC(=O)O)CC1)C(N)=O [DOTA-NAP-amide, reference compound] ?
0.09 %ID/g

Others:
Could you tell me which tissue uptake at 4 h is on file for CCCC[C@H](NC(=O)[C@H](Cc1ccc(OP(=O)(O)O)cc1)NC(=O)CNC(=O)CN1CCN(CC(=O)O)CCN(CC(=O)O)CCN(CC(=O)O)CC1)C(=O)N[C@@H](CC(=O)O)C(=O)N[C@@H](Cc1c[nH]cn1)C(=O)N[C@H](Cc1ccccc1)C(=O)N[C@@H](CCCNC(=N)N)C(=O)N[C@@H](Cc1c[nH]c2ccccc12)C(N)=O [DOTA-Phospho-MSH2-9] ({DOTA}-G[pY][Nle]DH[dF]RW-NH2) ?
0.17 %ID/g
